testTarget: α2β1 integrin (Homo sapiens, UniProt P05556+P17301)
Sequence (P17301 30-1181): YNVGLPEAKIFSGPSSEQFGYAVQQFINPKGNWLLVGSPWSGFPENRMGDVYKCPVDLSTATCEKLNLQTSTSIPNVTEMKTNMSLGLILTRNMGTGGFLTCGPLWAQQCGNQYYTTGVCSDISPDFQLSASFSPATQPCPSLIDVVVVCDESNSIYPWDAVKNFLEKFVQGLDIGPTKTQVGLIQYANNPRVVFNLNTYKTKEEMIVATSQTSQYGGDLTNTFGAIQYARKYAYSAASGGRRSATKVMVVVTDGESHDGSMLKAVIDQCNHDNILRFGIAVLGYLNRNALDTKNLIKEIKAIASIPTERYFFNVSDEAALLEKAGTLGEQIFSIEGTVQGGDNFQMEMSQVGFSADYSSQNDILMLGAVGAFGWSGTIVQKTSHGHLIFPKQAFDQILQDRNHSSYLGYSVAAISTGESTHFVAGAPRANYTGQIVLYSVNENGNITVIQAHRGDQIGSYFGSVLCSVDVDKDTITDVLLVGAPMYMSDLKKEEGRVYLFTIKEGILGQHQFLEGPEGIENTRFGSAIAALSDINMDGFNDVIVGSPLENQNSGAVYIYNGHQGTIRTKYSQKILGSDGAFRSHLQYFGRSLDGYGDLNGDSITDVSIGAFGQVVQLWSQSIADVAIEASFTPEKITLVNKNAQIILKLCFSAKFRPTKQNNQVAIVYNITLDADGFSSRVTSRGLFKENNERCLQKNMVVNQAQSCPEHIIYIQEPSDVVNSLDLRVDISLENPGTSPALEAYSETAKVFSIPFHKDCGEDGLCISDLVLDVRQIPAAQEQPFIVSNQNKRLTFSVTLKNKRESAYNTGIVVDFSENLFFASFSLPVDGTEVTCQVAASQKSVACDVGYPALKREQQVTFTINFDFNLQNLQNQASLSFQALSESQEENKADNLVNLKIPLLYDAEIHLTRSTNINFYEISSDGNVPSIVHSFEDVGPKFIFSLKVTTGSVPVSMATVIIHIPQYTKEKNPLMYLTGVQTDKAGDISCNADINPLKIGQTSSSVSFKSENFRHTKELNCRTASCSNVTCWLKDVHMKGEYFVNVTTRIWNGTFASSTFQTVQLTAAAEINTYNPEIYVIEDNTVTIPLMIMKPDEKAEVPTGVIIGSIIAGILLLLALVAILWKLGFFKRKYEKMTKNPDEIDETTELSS
Sequence (P05556 21-798 partner): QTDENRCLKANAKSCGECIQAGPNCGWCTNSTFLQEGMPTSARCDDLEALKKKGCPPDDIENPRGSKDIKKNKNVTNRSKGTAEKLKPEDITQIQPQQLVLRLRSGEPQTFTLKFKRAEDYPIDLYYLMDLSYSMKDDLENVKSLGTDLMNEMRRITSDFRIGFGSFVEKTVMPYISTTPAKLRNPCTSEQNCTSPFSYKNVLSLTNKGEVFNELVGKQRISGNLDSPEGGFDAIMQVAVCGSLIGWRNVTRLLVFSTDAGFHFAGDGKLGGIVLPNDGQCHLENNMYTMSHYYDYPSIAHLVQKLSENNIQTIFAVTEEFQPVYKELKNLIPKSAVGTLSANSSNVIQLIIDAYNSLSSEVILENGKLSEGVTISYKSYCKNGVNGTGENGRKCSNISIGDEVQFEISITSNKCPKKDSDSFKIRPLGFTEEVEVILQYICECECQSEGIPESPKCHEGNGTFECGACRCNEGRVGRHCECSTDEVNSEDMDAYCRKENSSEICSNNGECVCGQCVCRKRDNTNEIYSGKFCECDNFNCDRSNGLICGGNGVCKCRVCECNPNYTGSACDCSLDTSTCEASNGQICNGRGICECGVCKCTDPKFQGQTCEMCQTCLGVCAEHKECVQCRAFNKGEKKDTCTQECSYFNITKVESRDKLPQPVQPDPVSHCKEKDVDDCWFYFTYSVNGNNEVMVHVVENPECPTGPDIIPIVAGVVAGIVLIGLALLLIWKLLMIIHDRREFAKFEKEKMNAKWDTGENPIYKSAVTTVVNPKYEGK
protocolNotes: Cell adhesion assay
Type: cell-based
studyConditions: read-out: EC50 in cell adhesion assay
pEC50: −log10 of the molar value.
endpointLabel: pEC50

structureSmiles: COc1cc(OC)nc(-c2ccc(NS(=O)(=O)c3ccc4ccccc4c3)cc2)n1
pEC50: 4.74
//
structureSmiles: Cc1cc(C)n(-c2ccc(NS(=O)(=O)c3cccc(-c4ccc(F)cc4)c3)cc2)n1
pEC50: 4.48
//
structureSmiles: O=S(=O)(Nc1ccc(-n2cccc2)cc1)c1ccc(Cl)cc1Cl
pEC50: 4.49
//
structureSmiles: CN(C)c1ccc(NS(=O)(=O)c2cccc(-c3cccc(F)c3)c2)cc1
pEC50: 4.72
//
structureSmiles: CC(=O)c1ccc(-c2cccc(S(=O)(=O)Nc3ccc(N(C)C)cc3)c2)s1
pEC50: 4.62

A = Cc1cc2c(n1-c1ccc(NS(=O)(=O)c3ccc(C(F)(F)F)cc3Cl)cc1)CC(C)(C)CC2=O
B = O=S(=O)(Nc1ccc(-n2cnc(Cl)c2Cl)cc1)c1cccc(-c2ccc(F)cc2)c1
-- ask Of A and B , which carries the smaller reported pEC50 figure? The response must carry the label of the picked entry.
-- reply A

---

testTarget: α2β1 integrin (Homo sapiens, UniProt P05556+P17301)
protocolNotes: Cell adhesion assay
Format: cell-based
studyConditions: EC50 in cell adhesion assay
endpointLabel: EC50 (µM)
Answer format: numeric, µM implied, no suffix.

The molecule listed as CN(C)c1ccc(NS(=O)(=O)c2cccc(-c3ccc(F)c(F)c3)c2)cc1 has a reported EC50 of 26

---

testTarget: α2β1 integrin (Homo sapiens, UniProt P05556+P17301)
protocolNotes: Cell adhesion assay
Format: cell-based
studyConditions: read-out: EC50 in cell adhesion assay
endpointLabel: EC50 (µM)

Solved entries (count: 5):
molecule: Cc1nc2cc(NS(=O)(=O)c3cccc(-c4ccc(F)cc4)c3)ccc2o1
EC50, µM: 25
//
molecule: Cc1cc2cc(NS(=O)(=O)c3ccc4oc(=O)ccc4c3)ccc2[nH]1
EC50, µM: 35
//
molecule: Cc1cc(C)nc(N(C)c2ccc(NS(=O)(=O)c3ccc(Cl)cc3Cl)cc2)n1
EC50, µM: 17
//
molecule: Cc1ccc(C)n1-c1ccc(NS(=O)(=O)c2ccc(Cl)cc2Cl)cc1
EC50, µM: 25
//
molecule: Cc1cc(C)nc(Nc2ccc(NS(=O)(=O)c3cccc(Br)c3)cc2)n1
EC50, µM: 28

P = COc1ccc(NS(=O)(=O)c2cccc(-c3ccc(F)cc3)c2)cc1
Q = COc1ccc(-c2cccc(S(=O)(=O)Nc3ccc(N(C)C)cc3)c2)cc1OC [Compound 102]
-- ask // compare: P vs Q , metric EC50, want the smaller State your choice using its label.
-- reply Q

---

testTarget: α2β1 integrin (Homo sapiens, UniProt P05556+P17301)
protocolNotes: Cell adhesion assay
Format: cell-based
studyConditions: concentration not given; read-out: Emax in cell adhesion assay
endpointLabel: Emax (%)

Use these answered entries as a reference point.
structureSmiles: COc1cc(OC)nc(-c2ccc(NS(=O)(=O)c3ccc(-c4cnco4)s3)cc2)n1
Emax [%]: 72
//
structureSmiles: COc1cc(OC)nc(-c2ccc(NS(=O)(=O)c3cccc(-c4ccc(F)cc4)c3)cc2)n1
Emax [%]: 85

A = Cc1cc2cc(N(C)S(=O)(=O)c3ccc(Cl)cc3Cl)ccc2n1C
B = CN(c1ccc2c(c1)c1ccccc1n2C)S(=O)(=O)c1ccc(Cl)cc1Cl
-- ask Which record shows the lower Emax: the first, A , or the second, B ? In your reply, give the label of the chosen option.
-- reply B

---

testTarget: α2β1 integrin (Homo sapiens, UniProt P05556+P17301)
protocolNotes: Cell adhesion assay
Assay type: cell-based
studyConditions: read-out: EC50 in cell adhesion assay
pEC50: −log10 of the molar value.
endpointLabel: pEC50

Sample records with pEC50:
structureSmiles: Cn1ccc2ccc(NS(=O)(=O)c3cccc(-c4ccc(F)cc4)c3)cc21
testTarget: α2β1 integrin (Homo sapiens, UniProt P05556+P17301)
pEC50: ~4.52

structureSmiles: Cc1cc2cc(NS(=O)(=O)c3cccc(C(F)(F)F)c3)ccc2[nH]1
testTarget: α2β1 integrin (Homo sapiens, UniProt P05556+P17301)
pEC50: < 4.52

// next entry
Measured pEC50 of COc1cccc(-c2cccc(S(=O)(=O)Nc3ccc(N(C)C)cc3)c2)c1 : ~4.60

---

testTarget: α2β1 integrin (Homo sapiens, UniProt P05556+P17301)
protocolNotes: Cell adhesion assay
Assay type: cell-based
studyConditions: concentration not given; read-out: Emax in cell adhesion assay
endpointLabel: Emax (%)

Take a look at these entries with their results.
structureSmiles: COc1ccc(-c2cccc(S(=O)(=O)Nc3ccc(N(C)C)cc3)c2)cc1OC
endpointLabel: Emax
observed: 77

structureSmiles: Cc1cc(C)nc(N(C)c2ccc(N(C)S(=O)(=O)c3ccc(Cl)cc3Cl)cc2)n1
endpointLabel: Emax
observed: 57

structureSmiles: O=S(=O)(Nc1ccc(-n2cnc(Cl)c2Cl)cc1)c1ccc2ccccc2c1
endpointLabel: Emax
observed: 79

structureSmiles: O=S(=O)(Nc1ccc(-n2cnc(Cl)c2Cl)cc1)c1cccc(-c2ccc(F)cc2)c1
endpointLabel: Emax
observed: 79

structureSmiles: Cc1cc(C)nc(Nc2ccc(NS(=O)(=O)c3ccc(Cl)cc3Cl)cc2)n1
endpointLabel: Emax
observed: 77

P = CN(C)c1ccc(NS(=O)(=O)c2cc(Br)c(F)cc2F)cc1
Q = O=S(=O)(Nc1ccc2[nH]ccc2c1)c1ccc(Cl)cc1Cl
-- ask I'd appreciate it if you could identify which of P and Q has the greater Emax. # reply format: chosen label
-- reply P
(P: 75%, Q: 40%)
